Reported values of melting point for individual entries
Give a bare numeral; the unit °C is implied.

[
  {
    "Compound": "C/C=C/C1Nn2c(nnc2-c2cccnc2)S1 (centres undefined)",
    "melting point (°C)": 121
  }
]

Input: What value of melting point has been recorded for this entry: CC(=O)OCC(OC(C)=O)C(OC(C)=O)C(OC(C)=O)C(OC(C)=O)C(=O)CBr (centres undefined)
Output: 124

Input: What value of melting point has been recorded for this entry: CCCC=O [Butyraldehyde]
Output: -96

###

Observation type: melting point (°C)
Give a bare numeral; the unit °C is implied.

Please review the following examples before continuing.
[
  {
    "Compound": "CC(=O)Nc1ccc(O)cc1",
    "Reading unit": "°C",
    "melting point": 169
  },
  {
    "Compound": "O=c1c(O)c(-c2ccccc2O)oc2ccccc12 [2',3-dihydroxyflavone]",
    "Reading unit": "°C",
    "melting point": 203
  },
  {
    "Compound": "Clc1ccc2[nH]ccc2c1",
    "Reading unit": "°C",
    "melting point": 71
  },
  {
    "Compound": "OC[C@@H](O)[C@@H](O)[C@H](O)[C@@H](O)CO",
    "Reading unit": "°C",
    "melting point": 111
  },
  {
    "Compound": "c1c[nH]nn1 [1h-1,2,3-triazole]",
    "Reading unit": "°C",
    "melting point": 24
  },
  {
    "Compound": "Cc1cc(C(=O)OCC(=N)O)c(C)n1-c1ccc(F)cc1",
    "Reading unit": "°C",
    "melting point": 178
  }
]

Input: What value of melting point has been recorded for this entry: NNc1c(F)c(F)c(F)c(F)c1F [pentafluorophenylhydrazine]
Output: 76

Input: What value of melting point has been recorded for this entry: `CCC(C)(C)CC`
Output: -134

Input: What value of melting point has been recorded for this entry: `CCCCCCCC/C=CCCCCCCCC(=O)O`
Output: 14

Input: What value of melting point has been recorded for this entry: O=C[C@H](O)[C@@H](O)[C@H](O)[C@H](O)CO [D-glucose, anhydrous]
Output: 151

Input: What value of melting point has been recorded for this entry: CC(C)(C)c1cc(CC(=O)O)cc(C(C)(C)C)c1O [3,5-di-tert-butyl-4-hydroxyphenylacetic acid]
Output: 156

Input: What value of melting point has been recorded for this entry: `O=C1CN=C(c2ccccc2)c2cc(Cl)ccc2N1CC(F)(F)F`
Output: 164

Input: What value of melting point has been recorded for this entry: `O=C(O)c1c(F)c(F)c(F)c(F)c1F`
Output: 102
